Values were extracted from patent US11407736B2.

Here, each record is paired with measured Kp data.
procedureText: in vivo pharmacokinetics, plasma and brain exposure
conditionContext: rodents, brain/plasma
Answer field: number only, no words.

Solved entries:
CN1C(=O)[C@@H](NC(=O)n2cc(Cc3ccc(F)cc3)cn2)COc2ccc(C#CC3(C)COC3)cc21: 2.44
CN1C(=O)[C@@H](NC(=O)c2cc(Oc3ccccc3)ccn2)COc2ccc(C#CC3(C)COC3)cc21: 0.98
COC1(C#Cc2ccc3c(c2)N(C)C(=O)[C@@H](NC(=O)c2cc(Oc4ccccc4)ccn2)CO3)CN(C)C1: 1.7

Recall and state the measured Kp for `Cc1cccc(C#Cc2ccc3c(c2)N(C)C(=O)[C@@H](NC(=O)n2cc(Cc4ccc(F)cc4)cn2)CO3)n1` .
0.9

Recall and state the measured Kp for `CN1C(=O)[C@@H](NC(=O)c2cc(Oc3ccccc3)ccn2)COc2ccc(C#CC(C)(C)N)cc21` .
1.29

* * *

Tested on: L929 cells
procedureText: L929 cell necroptosis assay (TNFa + zVAD, CellTiter-Glo)
Assay type: cell-based, murine
conditionContext: Mus musculus, L929, read-out: L929-CTG-recovery, L929, TNFa + zVAD (IC50), L929 cells, TNFa + zVAD
pIC50: −log10 of the molar value.
Mark true for reported pIC50 of 7 or greater; mark false for anything smaller.

Consider the following illustrative entries.
CN1C(=O)[C@@H](NC(=O)c2cc(Oc3ccc(C#N)cc3)ccn2)COc2ccc(C#CC3(O)COC3)cc21: false
CN1C(=O)[C@@H](NC(=O)c2cc(Oc3ccccc3)ccn2)COc2ccc(C#CC3(F)CNC3)cc21: false
CN1C(=O)[C@@H](NC(=O)n2cc(Cc3ccccc3)cn2)COc2ccc(C#CC3(O)COC3)cc21: true
CN1CC(F)(C#Cc2ccc3c(c2)N(C)C(=O)[C@@H](NC(=O)c2cc(Oc4ccccc4)ccn2)CO3)C1: true
CN1CC(O)(C#Cc2ccc3c(c2)N(C)C(=O)[C@@H](NC(=O)c2cc(Oc4ccccc4)ccn2)CO3)C1: false

Given the entry `CC(C)N1CC(O)(C#Cc2ccc3c(c2)N(C)C(=O)[C@@H](NC(=O)c2cc(Oc4ccccc4)ccn2)CO3)C1` , answer whether its pIC50 meets or surpasses 7.
false

Given the entry `CN1C(=O)[C@@H](NC(=O)c2cc(Oc3ccccc3)ccn2)COc2ccc(C#CC3(C)COC3)cc21` , answer whether its pIC50 meets or surpasses 7.
true

* * *

Tested on: L929 cells
procedureText: L929 cell necroptosis assay (TNFa + zVAD, CellTiter-Glo)
Assay type: cell-based, murine
conditionContext: Mus musculus; L929 cells, TNFa + zVAD; read-out: L929-CTG-recovery, L929, TNFa + zVAD (IC50)
Where a name gives a salt, the structure may show the parent alone.
Here, each record is paired with measured pIC50 data.
The read-out pIC50 is expressed as -log10 of concentration in moles per litre.

Recall and state the measured pIC50 for `CN1C(=O)[C@@H](NC(=O)c2cc(Oc3ccccc3)ccn2)COc2ccc(N3CC4(CCOCC4)C3)cc21` .
5.65

Recall and state the measured pIC50 for `CN1C(=O)[C@@H](NC(=O)c2ncn(Cc3ccccc3)n2)COc2ccc(C#CC3(O)CCC3)cc21` .
9.52

Recall and state the measured pIC50 for C[C@H](N)C(=O)OC1(C#Cc2ccc3c(c2)N(C)C(=O)[C@@H](NC(=O)c2cc(Oc4ccccc4)ccn2)CO3)COC1 [Compound I-194, trifluoroacetic acid salt] .
7.49

* * *

Here, each record is paired with measured log10 IC50 data.
targetSystem: RIPK1 (Homo sapiens (Human))
Sequence (Q13546 whole entry, species assumed): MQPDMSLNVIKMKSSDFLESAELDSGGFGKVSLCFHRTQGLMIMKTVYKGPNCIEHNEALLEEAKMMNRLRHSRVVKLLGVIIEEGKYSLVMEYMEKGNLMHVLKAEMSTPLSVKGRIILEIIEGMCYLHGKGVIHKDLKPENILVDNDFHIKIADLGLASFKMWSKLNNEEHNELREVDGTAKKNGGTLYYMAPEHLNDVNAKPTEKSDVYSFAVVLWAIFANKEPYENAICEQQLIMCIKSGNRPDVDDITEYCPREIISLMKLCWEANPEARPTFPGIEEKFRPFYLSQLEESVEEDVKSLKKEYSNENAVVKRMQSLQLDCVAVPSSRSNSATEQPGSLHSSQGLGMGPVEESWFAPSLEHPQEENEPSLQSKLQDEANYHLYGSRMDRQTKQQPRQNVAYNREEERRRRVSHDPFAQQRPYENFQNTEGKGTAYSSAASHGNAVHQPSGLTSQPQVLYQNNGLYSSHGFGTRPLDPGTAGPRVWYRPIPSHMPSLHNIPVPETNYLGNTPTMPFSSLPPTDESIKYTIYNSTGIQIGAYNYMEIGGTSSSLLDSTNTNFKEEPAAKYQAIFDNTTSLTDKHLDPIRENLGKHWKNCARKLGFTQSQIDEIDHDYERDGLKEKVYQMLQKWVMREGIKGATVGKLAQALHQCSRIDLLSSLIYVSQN
procedureText: RIPK1 ADP-Glo biochemical kinase assay
Annotation: log10 of IC50, nM basis.

Recall and state the measured log10 IC50 for `CN1C(=O)[C@@H](NC(=O)n2cc(Cc3ccc(F)cc3F)cn2)COc2ccc(Br)cc21` .
1.63

Recall and state the measured log10 IC50 for `CN1CCN(C(C)(C)C#Cc2ccc3c(c2)N(C)C(=O)[C@@H](NC(=O)c2cc(Oc4ccccc4)ccn2)CO3)CC1` .
1.17

Recall and state the measured log10 IC50 for `CN1C(=O)[C@@H](NC(=O)c2n[nH]c(Cc3ccccc3)n2)COc2ccc(C#CC(C)(C)O)cc21` .
1.60

Recall and state the measured log10 IC50 for `CN1C(=O)[C@@H](NC(=O)c2cc(Oc3ccccc3)ccn2)COc2ccc(CN3CC4(CCOCC4)C3)cc21` .
1.65

Recall and state the measured log10 IC50 for `CN1C(=O)[C@@H](NC(=O)c2cc(Oc3ccccc3)ccn2)COc2ccc(C#CC(C)(C)N3CCOCC3)cc21` .
1.75

Recall and state the measured log10 IC50 for `CN1C(=O)[C@@H](NC(=O)n2cc(Cc3ccc(F)cc3F)cn2)COc2ccc(C#CC(C)(C)CNC(=O)OC(C)(C)C)cc21` .
2.42

Recall and state the measured log10 IC50 for `CN1C(=O)[C@@H](NC(=O)c2cc(Oc3ccccc3)ccn2)COc2ccc(C#CC3(O)CCCC3)cc21` .
1.47

* * *

procedureText: in vivo pharmacokinetics, plasma and brain exposure
conditionContext: brain
Here, each record is paired with measured BRAIN AUC0-6 data.
Answer field: number only, no words.

CN1C(=O)C(NC(=O)n2cc(Cc3ccccc3)cn2)CCc2ccc(N3CC4(CCOCC4)C3)cc21 (racemic) [Compound I-182]: 157
CN1C(=O)[C@@H](NC(=O)c2cc(Oc3ccccc3)ccn2)COc2ccc(C#CC(C)(C)N)cc21 [Compound I-139]: 1100
CN1C(=O)[C@@H](NC(=O)c2nn(Cc3ccccc3)cc2F)COc2ccc(N3CCC4(CCOCC4)C3)cc21 [Compound I-181]: 456

Kindly consider the entry below.
Recall and state the measured BRAIN AUC0-6 for CN1C(=O)[C@@H](NC(=O)n2cc(Cc3ccc(F)cc3)cn2)COc2ccc(C#CC3(C)COC3)cc21 [Compound I-180] .
251

* * *

targetSystem: RIPK1 (Homo sapiens (Human))
procedureText: RIPK1 ADP-Glo biochemical kinase assay
conditionContext: read-out: RIPK1 ADP-Glo Kinase (IC50)
Here, each record is paired with measured log10 of IC50 data.
Annotation: log10 of IC50, µM basis.

Solved entries:
CN1C(=O)[C@@H](NC(=O)c2n[nH]c(Cc3ccccc3)n2)COc2ccc(CCC(=O)N3CCOCC3)cc21: -1.24
CN1C(=O)[C@@H](NC(=O)c2n[nH]c(Cc3ccccc3)n2)COc2ccc(CCCO)cc21: -1.14
CN1C(=O)[C@@H](NC(=O)c2n[nH]c(Cc3ccccc3)n2)COc2ccc(C#CC3(O)CCC3)cc21: -1.50
CN1C(=O)[C@@H](NC(=O)c2ncn(Cc3c(Cl)cccc3Cl)n2)COc2ccc(CCC(=O)NC3CC3)cc21: -0.84
CN1C(=O)[C@@H](NC(=O)c2cc(Oc3ccccc3)ccn2)COc2ccc(C#CC3(O)CCS(=O)(=O)CC3)cc21: -1.55

Recall and state the measured log10 of IC50 for `CN1C(=O)[C@@H](NC(=O)c2ncn(Cc3ccccc3F)n2)COc2ccc(CCC(=O)Nc3ccc4cn[nH]c4c3)cc21` .
-1.68

Recall and state the measured log10 of IC50 for `CCN1C(=O)[C@@H](NC(=O)c2n[nH]c(Cc3cccc(F)c3)n2)COc2ccc(C#CC(C)(C)O)cc21` .
-0.03

* * *

targetSystem: RIPK1 (Homo sapiens (Human))
procedureText: RIPK1 ADP-Glo biochemical kinase assay
conditionContext: read-out: RIPK1 ADP-Glo Kinase (IC50)
Here, each record is paired with measured pIC50 data.
The read-out pIC50 is expressed as -log10 of concentration in moles per litre.

Solved entries:
CN1C(=O)[C@@H](NC(=O)c2cc(Oc3ccccc3)ccn2)COc2ccc(C#CCN3CCCC3)cc21: 7.63
CN1C(=O)[C@@H](NC(=O)c2ncn(Cc3ccccc3)n2)COc2ccc(CN3CCn4nc(C(F)(F)F)nc4C3)cc21: 7.44
CN1C(=O)[C@@H](NC(=O)c2n[nH]c(Cc3ccccc3)n2)COc2ccc(CCC(=O)Nc3ccc4[nH]ncc4c3)cc21: 7.80
Cc1ccccc1Cn1cnc(C(=O)N[C@H]2COc3ccc(C#CC(C)(C)O)cc3N(C)C2=O)n1: 7.59

Recall and state the measured pIC50 for `CN1C(=O)[C@@H](NC(=O)c2n[nH]c(Cc3ccccc3)n2)COc2ccc(CCCCOCc3ccccn3)cc21` .
5.79

Recall and state the measured pIC50 for CN1C(=O)[C@@H](NC(=O)c2cc(Oc3ccccc3)ccn2)COc2ccc(C#CC3(OC(=O)CCC(=O)O)COC3)cc21 [Compound I-147] .
7.76

Recall and state the measured pIC50 for `CN1C(=O)[C@@H](NC(=O)c2n[nH]c(Cc3ccccc3)n2)COc2ccc(CN3CCn4c(nnc4C(F)(F)F)C3)cc21` .
7.17

* * *

targetSystem: RIPK1 (Homo sapiens (Human))
procedureText: RIPK1 ADP-Glo biochemical kinase assay
Where a name gives a salt, the structure may show the parent alone.
assayEndpoint: IC50 (µM)
Give just the numeric value; µM need not be written.

Solved entries:
CN1C(=O)[C@@H](NC(=O)c2cc(Oc3ccccc3)ccn2)COc2cc(N3CCC4(CCOCC4)CC3)ccc21: 0.193
C=C(C)C#Cc1ccc2c(c1)N(C)C(=O)[C@@H](NC(=O)c1cc(Oc3ccccc3)ccn1)CO2: 0.126
CN1C(=O)[C@@H](NC(=O)c2cc(Oc3ccccc3)ccn2)COc2ccc(C#CC(C)(C)CO)cc21: 0.0321
CN1C(=O)[C@@H](NC(=O)n2cc(Cc3ccc(F)cc3F)cn2)COc2ccc(C#CC(C)(C)CN)cc21 [Compound I-241, hydrochloride]: 0.0501
CN1C(=O)[C@@H](NC(=O)c2cc(Oc3ccccc3)ccn2)COc2ccc(CN3CCC4(CCOCC4)CC3)cc21: 0.0396

Kindly consider the entry below.
Recall and state the measured IC50 for `CN1C(=O)[C@@H](NC(=O)n2cc(Cc3ccccc3)cn2)COc2ccc(N3CC4(CCOCC4)C3)cc21` .
0.0239
